Let's look at some binders and their measured IC50.
MEASURED ON: T1, human PD-1 extracellular domain fused with mouse Fc (PD-1-mFc) (human, UniProt Q15116 25-170)
T1 construct: extracellular domain; not used because of the label; also called hPD-1-mFc; human PD-1-mouse Fc fusion protein
TEST: blockage ELISA, coated PD-1-mFc, competitor PDL-1-mFc-biotin
ENDPOINT NAME: IC50 (µg/mL)

binder="13F1 murine anti-PD-1 antibody (antibody, V domains shown, Purified hybridoma antibody; also called 13F1-mIgG1) VH: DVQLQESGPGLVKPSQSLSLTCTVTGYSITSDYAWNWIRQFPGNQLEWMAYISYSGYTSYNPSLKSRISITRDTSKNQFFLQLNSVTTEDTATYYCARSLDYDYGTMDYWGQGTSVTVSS VL: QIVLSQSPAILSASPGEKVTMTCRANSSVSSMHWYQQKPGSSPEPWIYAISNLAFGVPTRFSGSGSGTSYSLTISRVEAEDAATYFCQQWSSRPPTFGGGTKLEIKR" endpoint_name=IC50 unit_abbreviation=µg/mL reported_value=0.701
binder="7A4 murine anti-PD-1 antibody (antibody, V domains shown, Purified hybridoma antibody; also called 7A4-mIgG1) VH: QIHLVQSGPELKKPGETVKISCKASGYTFTNFGMNWVKQAPGKGLKWMGWISGYTREPTYAADFKGRFAISLETSASTAYLQINDLKNEDMATYFCARDVFDYWGQGTTLTVSS VL: DIVLTQSPASLAVSLGQRATISCRASESVDNYGYSFMNWFQQKPGQPPKLLIYRASNLESGIPARFSGSGSRTNFTLTINPVEADDVATYFCQQSNADPTFGGGTNLEIKR" endpoint_name=IC50 unit_abbreviation=µg/mL reported_value=0.699
binder="7D3 murine anti-PD-1 antibody (antibody, V domains shown, Purified hybridoma antibody; also called 7D3-mIgG1) VH: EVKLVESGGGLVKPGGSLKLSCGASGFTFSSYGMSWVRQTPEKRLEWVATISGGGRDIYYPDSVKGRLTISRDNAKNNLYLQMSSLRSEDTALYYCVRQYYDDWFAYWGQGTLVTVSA VL: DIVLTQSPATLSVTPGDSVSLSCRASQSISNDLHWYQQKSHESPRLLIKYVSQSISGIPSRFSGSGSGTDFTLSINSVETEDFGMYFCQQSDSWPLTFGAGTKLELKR" endpoint_name=IC50 unit_abbreviation=µg/mL reported_value=0.982
binder="22A5 murine anti-PD-1 antibody (antibody, V domains shown, Purified hybridoma antibody; also called 22A5-mIgG1) VH: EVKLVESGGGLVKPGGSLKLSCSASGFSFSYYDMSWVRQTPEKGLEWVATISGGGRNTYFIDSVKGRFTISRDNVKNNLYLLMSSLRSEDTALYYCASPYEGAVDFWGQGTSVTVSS VL: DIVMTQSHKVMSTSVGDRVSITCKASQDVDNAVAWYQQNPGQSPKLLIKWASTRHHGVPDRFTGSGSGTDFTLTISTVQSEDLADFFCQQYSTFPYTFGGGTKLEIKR" endpoint_name=IC50 unit_abbreviation=µg/mL reported_value=1.11
